# ASSAY_EXPLANATION: signal-interfering artefacts in bead proximity readout – biochemical, AlphaScreen, HTS, counter-screen, dose response (AID 1259373)
# PROTOCOL_CONDITIONS: AlphaScreen optical interference counterscreen, cell-free
This is one part of the list. Calls of active or inactive are those of the source. No rule for the calls is given here.
Field: IC50. Provide a value for each of the compounds that follow.

Task: Item O=C(Cc1cccs1)N/N=C\C=C\c1ccco1 has what recorded IC50?
Result: > 6.48 µM (inactive)

Task: Item c1cc2c(cc1CNc1nc(Nc3ccc(N4CCOCC4)cc3)c3ncn(C4CCCCC4)c3n1)OCO2 has what recorded IC50?
Result: > 6.62 µM (inactive)

Task: Item COc1ccc2c(c1)CC(C(=O)Nc1ccc(-c3cn[nH]c3)cc1OCC(N)=O)CO2 (stereo not given) has what recorded IC50?
Result: > 6.48 µM (inactive)

Task: Item COc1cc(N2CCOCC2)ccc1Nc1cc(Nc2ccccc2-n2cccn2)c(C(F)(F)F)cn1 has what recorded IC50?
Result: > 6.48 µM (inactive)

Task: Item NC(=O)COC(=O)/C=C/c1ccc(I)o1 has what recorded IC50?
Result: > 7.27 µM (inactive)

Task: Item Cc1ccc(NC(=O)COC(=O)CCC(=O)Nc2sc3c(c2C(N)=O)CCC3)cc1F has what recorded IC50?
Result: > 6.95 µM (inactive)

Task: Item C/C(N)=C(/C#N)C(=O)COC(=O)c1c2c(nc3ccccc13)/C(=C/c1ccco1)CC2 has what recorded IC50?
Result: > 6.27 µM (inactive)

Task: Item COc1ccc2c(c1)CC(c1nc(Nc3ccc4cnccc4c3)c3ccccc3n1)CO2 (stereo not given) has what recorded IC50?
Result: > 6.48 µM (inactive)

Task: Item C[C@@H](OCc1ccccc1)[C@@H]1NC(=O)[C@H]2CN(C(=O)Nc3cccc(F)c3)CCN2C1=O has what recorded IC50?
Result: > 6.48 µM (inactive)

Task: Item CCOc1ccccc1N1CCN(Cc2cc(OC)c(O)c([N+](=O)[O-])c2)CC1 has what recorded IC50?
Result: > 6.48 µM (inactive)
